Data credit: ChEMBL document CHEMBL1201862

# Tested on: SNB-19
# ASSAY INFO: NCI tumour cell line growth inhibition, 48 h
The source made the active and inactive calls. Rule as the data show it: active = GI50 up to about 1.1 µM and inactive = higher.
OBSERVABLE: GI50

CCOC(=O)C1C2CCC1CC(=NNc1ccc([N+](=O)[O-])cc1[N+](=O)[O-])C2 (stereo not given)
> 50 µM (inactive)
N#Cc1c(-c2ccccc2)c2c([nH]c1=O)-c1cc([N+](=O)[O-])ccc1CCC2
36.7 µM (inactive)
[N-]=[N+]=CC(=O)CCC(NC(=O)C(CCC(=O)C=[N+]=[N-])NC(=O)CCC(N)C(=O)O)C(=O)O (stereo not given)
> 100 µM (inactive)

Give GI50 for all molecules that follow.
1. CCNCCCCNCC
2. NNC(=S)N/N=C(\C(=O)Nc1cccc(O)c1)C1C(=O)NC(=S)NC1=O
3. N#Cc1c(N)c(-c2ccc(Cl)cc2)c(F)c2ccccc12
4. C=C1C2CC[C@@](C)(O)C2[C@H]2OC(=O)C(=C)[C@@H]2C[C@H]1O (stereo not given in full)
5. COP(=O)(CC(=O)C1OC(OCc2ccccc2)C(OCc2ccccc2)C(OCc2ccccc2)C1OCc1ccccc1)OC (stereo not given)

Reply:
> 3750 µM (inactive)
> 100 µM (inactive)
> 100 µM (inactive)
48.6 µM (inactive)
11.4 µM (inactive)

Give GI50 for all molecules that follow.
1. COc1ccc(CNc2nc3cc(C(F)(F)F)ccc3nc2C(=O)O)cc1
2. C=CNC(=O)NC(=O)CSc1nc(=O)c(-c2ccccc2NC(=O)C(F)(F)F)n[nH]1

Reply:
["31.2 µM (inactive)", "32.2 µM (inactive)"]

###

# System: SK-MEL-28
# ASSAY INFO: NCI tumour cell line growth inhibition, 48 h
Calls of active or inactive are those of the source. Cut-off read from the data, not from the text of the source: active = GI50 up to about 1.1 µM and inactive = higher.
OBSERVABLE: GI50

Sample answers from the record:
COc1cc(C[C@H]2C(=O)OC[C@@H]2Cc2ccc(OC)c(OC)c2)cc(OC)c1
62.2 µM (inactive)
CC1=C(C(=O)Nc2ccccc2C)C(c2ccc(Cl)c(Cl)c2)C(C(=O)Nc2ccccc2C)=C(C)N1
25.8 µM (inactive)
Cc1cccc(C(=O)O)c1CC1NCCC2c3ccccc3NC12 (configuration not stated)
> 100 µM (inactive)
CCCNC(=O)Cn1c(C)cc2ccccc21
> 100 µM (inactive)
O=c1[nH]nc2ccccc2c1Cc1ccccc1
> 100 µM (inactive)
N#Cc1c(-c2ccccc2)c2c([nH]c1=O)-c1cc([N+](=O)[O-])ccc1CCC2
29.8 µM (inactive)

Turning to the following molecule.
GET /value?item= COc1ccc2nc3c(C(=O)NCCN(C)C)cccc3cc2c1 &field=GI50 returns 2.98 µM (inactive)

###

# Tested on: OVCAR-5
# ASSAY INFO: NCI tumour cell line growth inhibition, 48 h
Active and inactive are the calls of the source. No stated cut-off is given here; in the data, active = GI50 up to about 1.1 µM and inactive = higher.
Give measured GI50 for each item. Keep answers brief.

Sample answers from the record:
CC(SC1=CC(=O)c2c(O)ccc(O)c2C1=O)C(=O)O (centres undefined)
> 100 µM (inactive)
C=C1N(C)c2ccc(S(=O)(=O)c3ccc4c(c3)C(C)(C)C(=C)N4C)cc2C1(C)C
83.9 µM (inactive)

Give GI50 for all compounds that follow.
1. CC1=C(C(=O)NC2CCCCC2)CC(C(=O)NC2CCCCC2)=C(C)N1
2. O=C(CCCCCCCCC(=O)N1C(=O)CC(=O)N(c2ccc(Cl)cc2)C1=S)N1C(=O)CC(=O)N(c2ccc(Cl)cc2)C1=S
3. N#CC12C(=O)N3C(=NC(c4ccccc4)NC3c3ccccc3)C1(C#N)C(c1ccccc1)NC1=C2CCC1 (centres undefined)
4. NCCCCNCCCNC(=O)c1nc(-c2nc(CCN)sc2Cl)sc1Cl

Reply:
1. > 100 µM (inactive)
2. > 100 µM (inactive)
3. > 100 µM (inactive)
4. > 100 µM (inactive)

Give GI50 for all compounds that follow.
1. CC1=C(C(=O)Nc2ccccc2C)C(c2ccc(Cl)c(Cl)c2)C(C(=O)Nc2ccccc2C)=C(C)N1
2. O=C(c1ccccc1)c1c(-c2ccccc2)[nH]n(-c2ccc([N+](=O)[O-])cc2)c(=O)c1=O

Reply:
1: 23.1 µM (inactive); 2: > 100 µM (inactive)

Log: OVCAR-5, compound CC1OC(n2cc(F)c(=O)[nH]c2=O)CCC1O (centres undefined) , GI50 = > 100 µM (inactive)

###

# Tested on: OVCAR-4
# ASSAY INFO: NCI tumour cell line growth inhibition, 48 h
Calls of active or inactive are those of the source. No stated cut-off is given here; in the data, active = GI50 up to about 1.1 µM and inactive = higher.
OBSERVABLE: GI50

Sample answers from the record:
O=C(c1ccc(Cl)cc1)N(C(=S)N1CCN(c2ccccn2)CC1)C1CCCCC1
> 100 µM (inactive)
Oc1ccc2ccccc2c1OCc1nnc(CCCCCCCCc2nnc(COc3c(O)ccc4ccccc34)o2)o1
> 100 µM (inactive)
CC(=O)NC(CCCNC(=O)N(C)N=O)C(=O)NCc1ccccc1 (stereo not given)
> 100 µM (inactive)
CCCN1C(=O)CCC2=C1CCc1c2ccc(Cl)c1Cl
26.2 µM (inactive)

Turning to the following compound.
GET /value?item= CC(C)[Si]1(C(C)C)OCC2OC(n3ccc(=O)[nH]c3=O)C(O)(CO)C2O[Si](C(C)C)(C(C)C)O1 (stereo not given) &field=GI50 returns 13.8 µM (inactive)

###

Give measured GI50 for each item. Keep answers brief.
# System: TK-10
# ASSAY INFO: NCI tumour cell line growth inhibition, 48 h
Active and inactive are the calls of the source. Cut-off read from the data, not from the text of the source: active = GI50 up to about 1.1 µM and inactive = higher.

Sample answers from the record:
CCOc1cc(NC(C)=O)ccc1C(=O)NN1C(=O)C(Cl)C1c1ccc(O)c(OC)c1 (stereo not given)
3.08 µM (inactive)
CCCN1C(=O)CCC2=C1CCc1c2ccc(Cl)c1Cl
11.9 µM (inactive)
CC1C=C[C@H](Sc2ccccc2)CC[C@@]1(C)O (stereo not given in full)
> 100 µM (inactive)

Give GI50 for all compounds that follow.
1. COC(=O)[C@]12CC[C@H]3CN(C(=O)OCc4ccccc4)[C@H]([C@H]31)[C@H](c1ccccc1)N2
2. CC(=O)C(=CNc1c(C)n(C)n(-c2ccccc2)c1=O)C(C)=O

Reply:
> 100 µM (inactive)
> 100 µM (inactive)

Give GI50 for all compounds that follow.
1. COc1ccc2cc(CN3CCC(C4CCN(Cc5ccc6cc(OC)ccc6c5)CC4)CC3)ccc2c1
2. O=C(Nc1nc2ncn(CCO)c2c(=O)[nH]1)c1ccccc1
3. CC(=O)Nc1cccc2[nH]c3ccccc3c(=O)c12
4. CCOC(=N)n1c(=O)n(C2=NCCN2)c2ccccc21
5. CC/C=C/C[C@H](O[Si](C)(C)C(C)(C)C)[C@H]1C[C@H]2O[C@H]([C@@H](O)C#C[Si](C)(C)C)C[C@H]2O1
6. O=C(O)c1cc(/N=N/c2ccc([N+](=O)[O-])cc2)ccc1O

Reply:
["3.25 µM (inactive)", "> 100 µM (inactive)", "20.4 µM (inactive)", "> 100 µM (inactive)", "15.2 µM (inactive)", "25.6 µM (inactive)"]

###

# Tested on: SW-620
# ASSAY INFO: NCI tumour cell line growth inhibition, 48 h
Activity calls are given as the source filed them. Rule as the data show it: active = GI50 up to about 1.1 µM and inactive = higher.
Give measured GI50 for each item. Keep answers brief.

Sample answers from the record:
NC(Cc1cc(I)c(O)c(I)c1)C(=O)O (stereo unspecified)
163 µM (inactive)
COc1ccc(C(c2ccc(C(C)C)cc(=O)c2O)c2c(O)cc3oc(-c4ccccc4)cc(=O)c3c2O)cc1 (stereo unspecified)
14.5 µM (inactive)
C1CSCCSCCCSCCSCCCSCCSCCCSCCSC1
> 100 µM (inactive)

Give GI50 for all compounds that follow.
1. N#CC(C#N)=C1C(C#N)=C(N)NC12OCCO2
2. COc1ccc2c(c1)N=C(N)n1c(nc3ccccc31)S2
3. CC1=NN(c2ccccc2)C(=O)C12[C@H](c1ccccc1)C2(C#N)C#N (stereo partly specified)

Reply:
1. > 100 µM (inactive)
2. 39.9 µM (inactive)
3. 1.87 µM (inactive)

###

# System: NCI/ADR-RES
# ASSAY INFO: NCI tumour cell line growth inhibition, 48 h
Calls of active or inactive are those of the source. Rule as the data show it: active = GI50 up to about 1.1 µM and inactive = higher.
Give measured GI50 for each item. Keep answers brief.

Sample answers from the record:
O=S(=O)(N/C(=N\O)Nc1ccc(Cl)cc1)c1cc2ccccc2s1
20.2 µM (inactive)
CC(C)=C[C@@H]1C[C@H](C)[C@H]2CC[C@H](C)[C@H]3C(=O)C(O)=C(C)C(=O)[C@]123
> 100 µM (inactive)
NCC(O)CN.Oc1c(Cl)c(Cl)c(Cl)c(Cl)c1Cl
18.1 µM (inactive)
CC(=O)N(C)SCC(NC(=O)C(Cc1ccccc1)NC(=O)OCc1ccccc1)C(=O)NC(Cc1ccccc1)C(=O)NC(Cc1cn(C=O)c2ccccc12)C(=O)NC(CCCCNC(=O)OCc1ccccc1)C(=O)NC(C(=O)NC(CSN(C)C(C)=O)C(=O)NO)C(C)OCc1ccccc1 (centres undefined)
> 100 µM (inactive)
CCOC(=O)C1C2CCC1CC(=NNc1ccc([N+](=O)[O-])cc1[N+](=O)[O-])C2 (centres undefined)
4.38 µM (inactive)
CC(=O)N1C2=CCCC2(C)c2ccccc21 (centres undefined)
57.5 µM (inactive)

Give GI50 for all compounds that follow.
1. C=C1N(C)c2ccc(S(=O)(=O)c3ccc4c(c3)C(C)(C)C(=C)N4C)cc2C1(C)C
2. COc1cc(/N=C\N(C)C)c2ncccc2c1
3. O=c1cc(NCc2ccncc2)[nH]c(=O)[nH]1

Reply:
1. 59 µM (inactive)
2. 45.4 µM (inactive)
3. > 100 µM (inactive)
